# System: H1299 NSCLC (non-small cell lung cancer) cells
# assay_method_text: Cancer cell growth inhibition (MTS)
# Format: cell-based
# recorded_conditions: Homo sapiens, NCI-H1299, 48 hours, MTS reagent
readout: pIC50
The scale used: pIC50 is minus the common logarithm of the concentration in molar units.

Some solved cases for reference:
molecule	experimental_target	pIC50
COc1ccc(CC(=O)c2ccc3c(c2)C=CC(C)(C)O3)cc1OC	H1299 NSCLC (non-small cell lung cancer) cells	6.00
CO/N=C1\c2ccc3c(c2O[C@@H]2COc4cc(OC)c(OC)cc4[C@H]12)C=CC(C)(C)O3	H1299 NSCLC (non-small cell lung cancer) cells	5.37
COc1cc2c(cc1OC)[C@@H]1C(=O)c3ccc(OC)c(CC=C(C)C)c3O[C@@H]1CO2	H1299 NSCLC (non-small cell lung cancer) cells	5.28
CCO[C@@H]1c2ccc3c(c2O[C@@H]2COc4cc(OC)c(OC)cc4[C@H]12)C=CC(C)(C)O3	H1299 NSCLC (non-small cell lung cancer) cells	5.01
COc1ccc(C2(C(=O)c3ccc4c(c3OC)C=CC(C)(C)O4)CC2)cc1OC	H1299 NSCLC (non-small cell lung cancer) cells	3.99

Entry COc1ccc(CC(=O)c2ccc3c(c2OC)C=CC(C)(C)O3)cc1OC : reported pIC50 = ? 6.85

Entry COc1cc2c(cc1OC)[C@@H]1Cc3ccc4c(c3O[C@@H]1CO2)C=CC(C)(C)O4 : reported pIC50 = ? 5.38

Entry COc1cc2c(cc1OC)[C@@H]1C(=O)c3ccc4c(c3O[C@@H]1CO2)C=CC(C)(C)O4 [Comparative Example 1 (Deguelin), reference compound] : reported pIC50 = ? 6.96

Entry COc1cc2c(cc1OC)[C@H](C(=O)c1ccc3c(c1)C=CC(C)(C)O3)CCO2 (stereo in doubt) : reported pIC50 = ? 5.42

Entry COc1cc2c(cc1OC)-c1c(oc3c4c(ccc3c1=O)OC(C)(C)C=C4)CO2 : reported pIC50 = ? 5.00

Entry CCCO[C@@H]1c2ccc3c(c2O[C@@H]2COc4cc(OC)c(OC)cc4[C@H]12)C=CC(C)(C)O3 : reported pIC50 = ? 4.98

Entry COc1cc2c(cc1OC)[C@@H]1[C@H](OC(C)=O)c3ccc4c(c3O[C@@H]1CO2)C=CC(C)(C)O4 : reported pIC50 = ? 6.17

Entry COc1ccc([C@H](C)C(=O)c2ccc3c(c2OC)C=CC(C)(C)O3)cc1OC : reported pIC50 = ? 6.31

Entry COc1ccc([C@H]2COc3c(ccc4c3C=CC(C)(C)O4)C2=O)cc1OC : reported pIC50 = ? 5.35

Entry CC1(C)C=Cc2c(ccc3c2O[C@@H]2COc4cc(O)c(O)cc4[C@@H]2C3=O)O1 : reported pIC50 = ? 6.01

---

# Tested on: H1299 NSCLC (non-small cell lung cancer) cells
# assay_method_text: Cancer cell growth inhibition (MTS)
# Assay type: cell-based
# recorded_conditions: Homo sapiens, NCI-H1299, 48 hours, MTS reagent
readout: IC50 (nM)
Express the result in nM but write the number alone.

Entry COc1ccc(C(C)(C)C(=O)c2ccc3c(c2OC)C=CC(C)(C)O3)cc1OC : reported IC50 = ? 3200

Entry COc1ccc(C(C)C(=O)c2ccc3c(c2OC)C=CC(C)(C)O3)cc1OC (stereo not shown) : reported IC50 = ? 730

Entry COc1cc2c(cc1OC)[C@@H]1/C(=N/O)c3ccc4c(c3O[C@@H]1CO2)C=CC(C)(C)O4 : reported IC50 = ? 300

Entry COc1ccc([C@@H](C)C(=O)c2ccc3c(c2OC)C=CC(C)(C)O3)cc1OC : reported IC50 = ? 1300

Provenance of the data: patent US9745280B2
